TESTED_SYSTEM: T1, peanut allergen Ara h 1 (peanut (Arachis hypogaea)) (UniProt P43238)
T1 sequence (looked up): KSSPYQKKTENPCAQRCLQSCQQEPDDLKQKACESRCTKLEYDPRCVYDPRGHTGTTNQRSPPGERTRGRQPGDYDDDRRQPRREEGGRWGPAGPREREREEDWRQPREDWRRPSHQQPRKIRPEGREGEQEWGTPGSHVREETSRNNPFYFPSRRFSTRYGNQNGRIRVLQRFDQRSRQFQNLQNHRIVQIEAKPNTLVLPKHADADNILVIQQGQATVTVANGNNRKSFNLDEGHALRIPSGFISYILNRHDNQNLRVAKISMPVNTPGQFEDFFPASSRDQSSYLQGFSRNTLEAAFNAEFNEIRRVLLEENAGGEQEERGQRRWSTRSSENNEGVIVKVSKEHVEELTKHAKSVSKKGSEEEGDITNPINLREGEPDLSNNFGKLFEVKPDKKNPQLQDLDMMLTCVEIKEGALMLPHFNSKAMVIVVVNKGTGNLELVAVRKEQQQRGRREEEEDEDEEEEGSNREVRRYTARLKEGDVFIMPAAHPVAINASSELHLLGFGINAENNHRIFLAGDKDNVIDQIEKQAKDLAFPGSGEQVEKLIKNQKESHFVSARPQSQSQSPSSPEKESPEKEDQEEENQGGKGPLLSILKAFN
EXPERIMENT_NOTES: ImmunoCAP, hybridoma supernatant
Form field: ImmunoCAP kUA/L (one value per entry).
// note: answer is a bare numeric in kUA/L

>>> data_value("human IgE mAb 21C10 (antibody, V domains shown) VH: EVQLVESGGGLVKPGGSLRLSCAASGFILSRSSMSWVRQAPGKGLEWVSYISSTSSHIYYADSLKGRFTISRDNTENSVYLQMSSLRAEDTGVYYCARKTNGAWFLDLWGRGTLVTVSS VL: QSVLTQPPSVSGAPGQRVTISCTGSSSNIGAGSDVHWYQQFPGSAPHVLIYGNNQRPSGVPDRFSASKSGTSASLAITGLQADDEADYYCQSYDYDLSGSWVFGGGTKLTVL")
0.36

Entry human IgE mAb 38B7 (antibody, V domains shown) VH: QVQLVESGGGVVQPGRSLRLSCVGSGFTFRRDAKYWVRQAPGKGLEWVAAISHDGGEEDYAESVKGRFTISRDNSRETVYLEMNSLRPEDTAVYYCATTRSGWYFDYWGQGALVTVSS VL: EIVLTQSPATLSLSPGARATLSCRASQSVDTYLAWYQQRRGQSPRLLIYDASKRATGIPARFSGSGSGTDFTLTISSLEPEDFAVYYCQQRNNWRTWTFGQGTKVEIN , ImmunoCAP kUA/L reported as 0.11

Entry human IgE mAb 7B6 (antibody, V domains shown) VH: QVQLQQWGAGLLKPSETLSLTCAVYGGSFNGYYWSWIRQPPGKGLEWIGEIDHSGSTNYNSSLKSRVTISVDTSKNQFSLKLSSVTAADTAVYYCARRRIGSLLKYFQDWGQGTLVTVSS VL: SYELTQPPSVSVSPGQTASITCSGDKLGDSYVCWYQLKPGQSPVLVIYQDTKRPSGIPERFSGSNSGNTATLTISETQAMDEADYYCQAWDTTTDWVFGGGTKLTVL , ImmunoCAP kUA/L reported as 0.19
